test: Metabolic stability of the compound in human liver microsomes assessed as clearance at 10 uM incubated for 240 mins in presence of NADPH by UPLC-MS analysis; conditions: 4 h
Property measured: CLH (µL/min/mg)

1. Oc1c(CN2CCCC2)cc(Cn2ncc(-c3cccc(Br)c3)n2)c2cccnc12 ... 10
2. Oc1c(CN2CCCC2)cc(Cn2ncc(-c3ccc(Br)cc3)n2)c2cccnc12 ... 12
3. CC(C)c1ccc(COCc2cc(-c3ccccc3)c(O)c3ncccc23)cc1 ... 3.2
4. Oc1c(CN2CCCCC2)cc(Cn2ncc(-c3ccc(C(F)(F)F)cc3)n2)c2cccnc12 ... 15.7
5. CC(C)c1ccc(COCc2cc(-c3cncc4ccccc34)c(O)c3ncccc23)cc1 ... 16.3
6. Oc1c(CN2CCCCC2)cc(Cn2ncc(-c3ccc(Br)cc3)n2)c2cccnc12 ... 17.5

* * *

Recorded Ratio IC50 values for a group of molecules are listed next.
test: Resistance index, ratio of IC50 for antiproliferation activity against human MDA-MB-435/LCC6MDR cells to IC50 for antiproliferation activity against human MDA-MB-435 cells assessed as cell growth inhibition measured after 72 hrs by MTS assay; format: functional
Property measured: Ratio IC50

1) Oc1c(CN2CCCC2)cc(Cn2cnc(-c3ccccc3)c2)c2cccnc12 ... 0.1
2) N#Cc1ccc(-c2cnn(Cc3cc(CN4CCCC4)c(O)c4ncccc34)n2)cc1 ... 0.3
3) Oc1c(CN2CCCCCC2)cc(Cn2ncc(-c3ccc(C(F)(F)F)cc3)n2)c2cccnc12 ... 0.5
4) CCc1ccc(-c2cnn(Cc3cc(CN4CCCC4)c(O)c4ncccc34)n2)cc1 ... 0.3
5) Oc1c(CN2CCCC2)cc(Cn2ncc(-c3ccccc3)n2)c2cccnc12 ... 0.1
6) Oc1c(CN2CCOCC2)cc(Cn2ncc(-c3ccc(Br)cc3)n2)c2cccnc12 ... 0.4
7) CC(C)c1ccc(COCc2cc(-c3ccsc3)c(O)c3ncccc23)cc1 ... 0.9
8) Oc1c(CN2CCCC2)cc(COC2CCc3ccccc3C2)c2cccnc12 (stereo not given) ... 0.4
9) CC(C)c1ccc(COCc2cc(-c3ccccc3)c(O)c3ncccc23)cc1 ... 2.6
10) COCC[n+]1c2c(n(Cc3cnccn3)c1C)C(=O)c1ccccc1C2=O.[Br-] [SEPANTRONIUM BROMIDE] ... >425

* * *

assay: Metabolic stability of the compound in rat liver microsomes assessed as clearance at 10 uM incubated for 10 mins in presence of NADPH by UPLC-MS analysis; assay type: ADME, Microsome
Property measured: CLH (µL/min/mg)

1. CC(C)c1ccc(COCc2cc(-c3cncc4ccccc34)c(O)c3ncccc23)cc1 ... 36.7
2. CC(C)c1ccc(COCc2cc(-c3ccccc3)c(O)c3ncccc23)cc1 ... 9.2
3. Oc1c(CN2CCCC2)cc(Cn2ncc(-c3ccc(Br)cc3)n2)c2cccnc12 ... 22.6
4. Oc1c(CN2CCCCC2)cc(Cn2ncc(-c3ccc(C(F)(F)F)cc3)n2)c2cccnc12 ... 14.2
5. Oc1c(CN2CCCC2)cc(Cn2ncc(-c3cccc(Br)c3)n2)c2cccnc12 ... 24.8
6. Oc1c(CN2CCCCC2)cc(Cn2ncc(-c3ccc(Br)cc3)n2)c2cccnc12 ... 18

* * *

test: Metabolic stability of the compound in mouse liver microsomes assessed as clearance at 10 uM incubated for 10 mins in presence of NADPH by UPLC-MS analysis; format: ADME, Microsome
Recorded CLH values for a group of compounds are listed next.
Property measured: CLH (µL/min/mg)

1) Oc1c(CN2CCCCC2)cc(Cn2ncc(-c3ccc(Br)cc3)n2)c2cccnc12 ... 35
2) Oc1c(CN2CCCCC2)cc(Cn2ncc(-c3ccc(C(F)(F)F)cc3)n2)c2cccnc12 ... 21.6
3) Oc1c(CN2CCCC2)cc(Cn2ncc(-c3cccc(Br)c3)n2)c2cccnc12 ... 24.3
4) CC(C)c1ccc(COCc2cc(-c3ccccc3)c(O)c3ncccc23)cc1 ... 5.5
5) Oc1c(CN2CCCC2)cc(Cn2ncc(-c3ccc(Br)cc3)n2)c2cccnc12 ... 27.8
6) CC(C)c1ccc(COCc2cc(-c3cncc4ccccc34)c(O)c3ncccc23)cc1 ... 19.9
